tested on: MOLP-8 (Plasma Cell Myeloma); experiment: combination Emax (second highest fraction inhibited in the dose matrix, 72 h); higher = more inhibition; extreme values may be limits of the assay
readout_name: combination Emax

[
  {
    "compound": "CC1(C)CCC(CN2CCN(c3ccc(C(=O)NS(=O)(=O)c4ccc(NCC5CCOCC5)c([N+](=O)[O-])c4)c(Oc4cnc5[nH]ccc5c4)c3)CC2)=C(c2ccc(Cl)cc2)C1 [Venetoclax] + Cn1cnc2c(F)c(Nc3ccc(Br)cc3Cl)c(C(=O)NOCCO)cc21 [Selumetinib] (first compound max 1 µM, 7x7, partner max 3 µM)",
    "value_measured": 0.186
  },
  {
    "compound": "CN(C)CCCOc1ccc(-c2ccc3ncc4c(c3c2)n(C2CCOCC2)c(=O)n4C)cn1 [AZD0156] + O=C(c1cc(Cc2n[nH]c(=O)c3ccccc23)ccc1F)N1CCN(C(=O)C2CC2)CC1 [Olaparib] (first compound max 3 µM, partner max 3 µM)",
    "value_measured": 0.67
  },
  {
    "compound": "CN(C)CCCOc1ccc(-c2ccc3ncc4c(c3c2)n(C2CCOCC2)c(=O)n4C)cn1 [AZD0156] + C[C@@H]1COCCN1C2=NC(=NC(=C2)C3(CC3)[S@](=N)(=O)C)C4=C5C=CNC5=NC=C4 [AZD6738] (first compound max 1 µM, 7x7, partner max 10 µM)",
    "value_measured": 0.848
  },
  {
    "compound": "NC1(C(=O)N[C@@H](CCO)c2ccc(Cl)cc2)CCN(c2ncnc3[nH]ccc23)CC1 [Capivasertib] + C[C@@H]1COCCN1C2=NC(=NC(=C2)C3(CC3)[S@](=N)(=O)C)C4=C5C=CNC5=NC=C4 [AZD6738] (first compound max 10 µM, 7x7, partner max 10 µM)",
    "value_measured": 0.85
  },
  {
    "compound": "NC1(C(=O)N[C@@H](CCO)c2ccc(Cl)cc2)CCN(c2ncnc3[nH]ccc23)CC1 [Capivasertib] + COc1nnc2ccc(N3CCC(c4ccc(OCCN5CCN(C)C(=O)[C@H]5C)cc4)CC3)nn12 [AZD5153] (first compound max 10 µM, 7x7, partner max 1 µM)",
    "value_measured": 1
  },
  {
    "compound": "Cc1cc2ncnn2cc1Nc1ncc2c(n1)n(C1CCOCC1)c(=O)n2C [AZD7648] + CN(C)CCCOc1ccc(-c2ccc3ncc4c(c3c2)n(C2CCOCC2)c(=O)n4C)cn1 [AZD0156] (first compound max 10 µM, 7x7, partner max 1 µM)",
    "value_measured": 0.514
  },
  {
    "compound": "Cn1cnc2c(F)c(Nc3ccc(Br)cc3Cl)c(C(=O)NOCCO)cc21 [Selumetinib] + C=CCn1c(=O)c2cnc(Nc3ccc(N4CCN(C)CC4)cc3)nc2n1-c1cccc(C(C)(C)O)n1 [AZD1775] (first compound max 10 µM, partner max 1 µM)",
    "value_measured": 0.791
  }
]

Where these numbers come from: the supplement of paper PMC11061612
